These data points were gathered from patent US12458605B2.

Catalogue of compounds with associated PdI
Test: Average particle size and PDI by dynamic light scattering (Zetasizer Nano ZS)
Format: physicochemical
Conditions: NlucmRNA-loaded LNP, 60:10:40:1

compound	measured-property	obs-value
CC(CCC(C(=O)OCCCCCCC(O)(CCCCCCOC(=O)C(CCC(C)CC(C)(C)C)C(C)CC(C)(C)C)CCCCOC(=O)C1CCN(C)CC1)C(C)CC(C)(C)C)CC(C)(C)C (stereo not drawn)	PdI	0.201

Query CCCCCCCCC(CCCCCC)C(=O)OCCCCCCC(O)(CCCCCCOC(=O)C(CCCCCC)CCCCCCCC)CCCCN(CCC)CCC (stereo not drawn) yields PdI of 0.157

Briefly, PdI measured for CCCCCCCC/C=C\CCCCCCCC(=O)OCCCCCCC(O)(CCCCCCOC(=O)CCCCCCC/C=C\CCCCCCCC)CCCCN(CCC)CCC [CL4H6, reference compound] : 0.139
